Attribution: ChEMBL document CHEMBL1148673

# EXPERIMENTAL SYSTEM: C5a anaphylatoxin chemotactic receptor 1 (Homo sapiens) (UniProt P21730)
# Sequence (P21730 whole entry): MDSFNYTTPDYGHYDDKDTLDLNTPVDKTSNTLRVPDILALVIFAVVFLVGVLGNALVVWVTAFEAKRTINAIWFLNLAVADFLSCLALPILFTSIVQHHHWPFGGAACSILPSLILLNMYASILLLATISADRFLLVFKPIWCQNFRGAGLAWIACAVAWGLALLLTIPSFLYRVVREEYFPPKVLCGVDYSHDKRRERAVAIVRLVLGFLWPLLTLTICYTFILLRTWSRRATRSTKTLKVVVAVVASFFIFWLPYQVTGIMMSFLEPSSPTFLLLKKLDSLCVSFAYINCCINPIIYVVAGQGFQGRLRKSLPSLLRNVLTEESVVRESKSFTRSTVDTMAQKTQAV
# METHOD NOTES: Agonist activity at human C5aR in CD88 transfected RBL cells at 286 uM
# Type: functional, cell-based
REPORTED ENDPOINT: Activity (%)
Just the number in %, nothing appended.

chemical_smiles=CC(=O)N[C@@H](Cc1ccccc1)C(=O)N[C@@H](CCCN)C(=O)N1CCC[C@H]1C(=O)N[C@H](CCC(C)C)C(=O)N[C@H](Cc1c[nH]c2ccccc12)C(=O)N[C@H](Cc1ccccc1)C(N)=O experimental_system="C5a anaphylatoxin chemotactic receptor 1 (Homo sapiens) (UniProt P21730)" reported_endpoint=Activity unit_info=% value=0
chemical_smiles=CC(=O)N[C@@H](Cc1ccccc1)C(=O)N[C@@H](CCCN)C(=O)N1CCC[C@H]1C(=O)N[C@H](CCC(C)C)C(=O)N[C@H](Cc1csc2ccccc12)C(=O)N[C@H](Cc1ccccc1)C(N)=O experimental_system="C5a anaphylatoxin chemotactic receptor 1 (Homo sapiens) (UniProt P21730)" reported_endpoint=Activity unit_info=% value=0
chemical_smiles=CC(=O)N[C@@H](Cc1ccccc1)C(=O)N[C@@H](CCCN)C(=O)N1CCC[C@H]1C(=O)N[C@@H](CCC(C)C)C(=O)N[C@H](Cc1ccc(F)cc1)C(=O)N[C@H](Cc1ccccc1)C(N)=O experimental_system="C5a anaphylatoxin chemotactic receptor 1 (Homo sapiens) (UniProt P21730)" reported_endpoint=Activity unit_info=% value=0
chemical_smiles=CC(=O)N[C@@H](Cc1ccccc1)C(=O)N[C@@H](CCCN)C(=O)N1CCC[C@H]1C(=O)N[C@H](CCC(C)C)C(=O)N[C@H](Cc1ccc(Cl)c(Cl)c1)C(=O)N[C@H](Cc1ccccc1)C(N)=O experimental_system="C5a anaphylatoxin chemotactic receptor 1 (Homo sapiens) (UniProt P21730)" reported_endpoint=Activity unit_info=% value=7.2
chemical_smiles=CC(=O)N[C@@H](Cc1ccccc1)C(=O)N[C@@H](CCCN)C(=O)N1CCC[C@H]1C(=O)N[C@H](CCC(C)C)C(=O)N[C@H](Cc1cccc(Cl)c1)C(=O)N[C@H](Cc1ccccc1)C(N)=O experimental_system="C5a anaphylatoxin chemotactic receptor 1 (Homo sapiens) (UniProt P21730)" reported_endpoint=Activity unit_info=% value=1.2

Next up:
Problem: Request body: readout Activity, system C5a anaphylatoxin chemotactic receptor 1 (Homo sapiens) (UniProt P21730), query CC(C)CC[C@H](NC(=O)[C@@H]1CCCN1C(=O)[C@H](CCCN)NC(=O)[C@H](Cc1ccccc1)NC(=O)[C@@H]1CC(=O)NC(=O)N1)C(=O)N[C@@H](Cc1ccc(F)cc1)C(=O)N[C@H](Cc1ccccc1)C(N)=O . Return the value.
Solution: 0

###

# EXPERIMENTAL SYSTEM: C5a anaphylatoxin chemotactic receptor 1 (Homo sapiens, UniProt P21730)
# Sequence (P21730 whole entry): as above
# METHOD NOTES: Antagonist activity at human C5aR in CD88 transfected RBL cells assessed as inhibition of C5a-induced glucosaminidase release
# Type: functional, cell-based
Residues, ends and D or L forms follow the SMILES beside them.
REPORTED ENDPOINT: pIC50
# pIC50 = -log10(concentration in molar units)

compound="CC(=O)N[C@@H](Cc1ccccc1)C(=O)N[C@H]1CCCNC(=O)[C@H](Cc2ccc3ccccc3c2)NC(=O)[C@H](Cc2c[nH]c3ccccc23)NC(=O)[C@@H](CC2CCCCC2)NC(=O)[C@@H]2CCCN2C1=O (HELM PEPTIDE1{[ac].F.[Orn].P.[O=C([C@@H](CC1CCCCC1)N[*:1])[*:2]].W.[O=C([C@H](Cc1ccc2ccccc2c1)N[*:1])[*:2]]}$PEPTIDE1,PEPTIDE1,3:R3-7:R2$$$V2.0)" reported_endpoint=pIC50 value=7.12

Problem: pIC50 lookup needed for CC(=O)N[C@@H](C)C(=O)N[C@H]1CCCNC(=O)[C@H](CCCN=C(N)N)NC(=O)[C@H](Cc2c[nH]c3ccccc23)NC(=O)[C@@H](CC2CCCCC2)NC(=O)[C@@H]2CCCN2C1=O (HELM PEPTIDE1{[ac].A.[Orn].P.[O=C([C@@H](CC1CCCCC1)N[*:1])[*:2]].W.R}$PEPTIDE1,PEPTIDE1,3:R3-7:R2$$$V2.0) , thanks.
Solution: 4.64

Problem: pIC50 lookup needed for CCC[C@@H]1NC(=O)[C@H](Cc2c[nH]c3ccccc23)NC(=O)[C@@H](CC2CCCCC2)NC(=O)[C@@H]2CCCN2C(=O)[C@@H](NC(=O)[C@H](Cc2ccccc2)NC(C)=O)CCCNC1=O (HELM PEPTIDE1{[ac].F.[Orn].P.[O=C([C@@H](CC1CCCCC1)N[*:1])[*:2]].W.[Nva]}$PEPTIDE1,PEPTIDE1,3:R3-7:R2$$$V2.0) , thanks.
Solution: 7.74

Problem: pIC50 lookup needed for CC(=O)N[C@@H](Cc1ccccc1)C(=O)N[C@@H](CCCN)C(=O)N1CCC[C@H]1C(=O)N[C@H](CCC(C)C)C(=O)N[C@@H](Cc1ccc(Cl)c(Cl)c1)C(=O)N[C@@H](Cc1ccccc1)C(N)=O , thanks.
Solution: 6.94

Problem: pIC50 lookup needed for CC(=O)N[C@@H](Cc1ccccc1)C(=O)N[C@H]1CCCNC(=O)[C@H](CCCNC(=N)N)NC(=O)[C@H](Cc2c[nH]c3ccccc23)NC(=O)[C@@H](CC2CCCCC2)NC(=O)[C@H](C)NC1=O , thanks.
Solution: 7.60

Problem: pIC50 lookup needed for CC(=O)N[C@@H](Cc1ccccc1)C(=O)N[C@@H](CCCN)C(=O)N1CCC[C@H]1C(=O)N[C@H](CC1CCCCC1)C(=O)N[C@@H](Cc1c[nH]c2ccccc12)C(=O)N[C@@H](CCCN=C(N)N)C(=O)O , thanks.
Solution: 6.27

Problem: pIC50 lookup needed for CC(C)CC[C@@H](NC(=O)[C@@H]1CCCN1C(=O)[C@H](CCCN)NC(=O)[C@H](Cc1ccccc1)NC(=O)[C@@H]1CC(=O)NC(=O)N1)C(=O)N[C@@H](Cc1ccc(F)cc1)C(=O)N[C@@H](Cc1ccccc1)C(N)=O , thanks.
Solution: 7.41

###

# EXPERIMENTAL SYSTEM: C5a anaphylatoxin chemotactic receptor 1 (Homo sapiens)
# METHOD NOTES: Antagonist activity at human C5aR in CD88 transfected RBL cells assessed as inhibition of C5a-induced glucosaminidase release
# Format: functional, cell-based
Residues, ends and D or L forms follow the SMILES beside them.
REPORTED ENDPOINT: pIC50
# pIC50 = -log10(concentration in molar units)

// known answers, use as guide
compound="CCCC[C@H]1NC(=O)[C@H](Cc2c[nH]c3ccccc23)NC(=O)[C@@H](CC2CCCCC2)NC(=O)[C@@H]2CCCN2C(=O)[C@@H](NC(=O)[C@H](Cc2ccccc2)NC(C)=O)CCCNC1=O (HELM PEPTIDE1{[ac].F.[Orn].P.[O=C([C@@H](CC1CCCCC1)N[*:1])[*:2]].W.[CCCC[C@@H](N[*:1])C(=O)[*:2]]}$PEPTIDE1,PEPTIDE1,3:R3-7:R2$$$V2.0)" value=6.97
compound="CC(=O)N[C@@H](Cc1ccccc1)C(=O)N[C@H]1CCCNC(=O)[C@H](CCC(C)C)NC(=O)[C@H](Cc2c[nH]c3ccccc23)NC(=O)[C@@H](CC2CCCCC2)NC(=O)[C@@H]2CCCN2C1=O (HELM PEPTIDE1{[ac].F.[Orn].P.[O=C([C@@H](CC1CCCCC1)N[*:1])[*:2]].W.[CC(C)CC[C@H](N[*:1])C(=O)[*:2]]}$PEPTIDE1,PEPTIDE1,3:R3-7:R2$$$V2.0)" value=7.24
compound=CC(=O)N[C@@H](Cc1ccccc1)C(=O)N[C@H]1CCCNC(=O)[C@H](CCCNC(=N)N)NC(=O)[C@H](Cc2c[nH]c3ccccc23)NC(=O)[C@@H](C)NC(=O)[C@@H]2CCCN2C1=O value=4.26
compound=CC(=O)N[C@@H](Cc1ccccc1)C(=O)N[C@H]1CCCNC(=O)[C@H](CCCN)NC(=O)[C@H](Cc2c[nH]c3ccccc23)NC(=O)[C@@H](CC2CCCCC2)NC(=O)[C@@H]2CCCN2C1=O value=7.74
compound="CC(=O)N[C@@H](Cc1ccccc1)C(=O)N[C@H]1CCCNC(=O)[C@H](Cc2ccccc2)NC(=O)[C@H](Cc2c[nH]c3ccccc23)NC(=O)[C@@H](CC2CCCCC2)NC(=O)[C@@H]2CCCN2C1=O (HELM PEPTIDE1{[ac].F.[Orn].P.[O=C([C@@H](CC1CCCCC1)N[*:1])[*:2]].W.F}$PEPTIDE1,PEPTIDE1,3:R3-7:R2$$$V2.0)" value=7.59
compound=CCCC[C@H](NC(=O)[C@H](Cc1c[nH]c2ccccc12)NC(=O)[C@@H](CC1CCCCC1)NC(=O)[C@@H]1CCCN1C(=O)[C@H](CCCN)NC(=O)[C@H](Cc1ccccc1)NC(C)=O)C(N)=O value=6.33

Problem: pIC50 lookup needed for CC(=O)N[C@@H](Cc1ccccc1)C(=O)N[C@H]1CCCNC(=O)[C@H](Cc2cccs2)NC(=O)[C@H](Cc2c[nH]c3ccccc23)NC(=O)[C@@H](CC2CCCCC2)NC(=O)[C@@H]2CCCN2C1=O (HELM PEPTIDE1{[ac].F.[Orn].P.[O=C([C@@H](CC1CCCCC1)N[*:1])[*:2]].W.[O=C([C@H](Cc1cccs1)N[*:1])[*:2]]}$PEPTIDE1,PEPTIDE1,3:R3-7:R2$$$V2.0) , thanks.
Solution: 7.66
